assay: qHTS assay for small molecules that induce genotoxicity in human embryonic kidney cells expressing luciferase-tagged ATAD5 - cell viability (AID 651634); settings: HEK293T ATAD5-luc cells viability, CellTiter-Fluor, 15.5 h; series mostly up to 83.3 µM; further: on the % scale 0 is the no-effect control and ±100 the full control effect; nearly all actives have a fitted effect of over 25% in size
Records with an inconclusive call do not appear. The source made the active and inactive calls. The call rests on the fitted dose curve.
ENDPOINT LABEL: outcome

O=C(CS(=O)Cc1ccco1)NC/C=C\COc1cc(CN2CCCCC2)ccn1 (stereo not drawn) | inactive
CCN(CC)CC(=O)Nc1c(C)cccc1C | inactive
O=C(O)c1cc(Cl)cc([N+](=O)[O-])c1Cl | inactive

====

assay: qHTS assay to test for compound auto fluorescence at 535 nm (green) in HEK293 cells (AID 720680); conditions: green autofluorescence 485/535 nm; series mostly up to 91.3 µM; further: on the % scale 0 is the no-effect control and ±100 the full control effect
The source made the active and inactive calls. The call rests on the fitted dose curve; in most records, active means well fitted curve in the direction sought with a large enough effect in the repeat runs; inconclusive means weak or mixed curves; inactive means flat fitted curve, though single readings scatter.
ENDPOINT LABEL: fluorescence, % of fluorescein

CC(CC=O)CCCC(C)(C)O (stereo not given) | inactive
COc1ccc2c(c1)C(=O)N(CCc1ccc(S(=O)(=O)NC(=O)NC3CCCCC3)cc1)C(=O)C2(C)C | 0.0317% [at 18.6 µM] (inactive)
C=C(C)C(=O)OCC(C)(C)COC(=O)C(=C)C | inactive
O=C(O)c1cc(Cl)cc([N+](=O)[O-])c1Cl | inactive

[ask] Indicate its recorded fluorescence, % of fluorescein; the compound in question is `Cc1cc2cc3c(C)cc(=O)oc3c(C)c2o1`
[reply] 0.0223% [at 18.6 µM] (inactive)
